B1: 6YSE (parent)
chain: HERALMVNRLQKLTRMLRVHPDPKWKQEQQELIKRLK

Variants of: B1
PROTOCOL_TEXT: folding stability dG (cDNA display proteolysis); higher = more stable
ASSAY_CONTEXT: PBS, room temperature
# Lookup of reported folding stability dG keyed by entry

Measured folding stability dG, A4S : 4.42 kJ/mol

Measured folding stability dG, V7N : 2.12 kJ/mol

Measured folding stability dG, Q11Y : 5.92 kJ/mol

New cases:
Measured folding stability dG, E28D : -1.19 kJ/mol

Measured folding stability dG, M16S : -1.76 kJ/mol

Measured folding stability dG, P21F : 8.99 kJ/mol

Measured folding stability dG, Q27H : 5.04 kJ/mol

Measured folding stability dG, R18T : 2.75 kJ/mol

Measured folding stability dG, Q11A : 6.44 kJ/mol

Measured folding stability dG, H1G : 4.41 kJ/mol

Measured folding stability dG, R3S : 2.04 kJ/mol

Measured folding stability dG, Q30N : 4.1 kJ/mol
